Test system: endothelial cells
PROCEDURE_DETAILS: LDH release (membrane integrity)
MEASUREMENT_PARAMETERS: 1 mM, 60 minutes; maximum = 1% Triton
MEASUREMENT_NAME: LDH release (% of maximum)

Known results for molecules:
CC(=O)c1ccccn1 = 0.7±0.12 % of maximum
C=CCc1ccc(O)c(OC)c1 = 0.4±0.23 % of maximum

Each of the following entries comes with a recorded value; kindly state LDH release (% of maximum) for each.
1. CC1CCC(C(C)C)C(O)C1 (centres unmarked)
2. CC12CCC(CC1)C(C)(C)O2
3. Cc1cnc(C)cn1

1: 0.8±0.03 % of maximum; 2: 1.0±0.27 % of maximum; 3: 0.9±0.12 % of maximum

---

SYSTEM_TESTED: soluble guanylate cyclase (sGC) (Bos taurus, UniProt P16068+P19687)
Construct: The activity of sGC purified from bovine lung; from tissue; host or cells: bovine lung
Sequence (P19687 whole entry): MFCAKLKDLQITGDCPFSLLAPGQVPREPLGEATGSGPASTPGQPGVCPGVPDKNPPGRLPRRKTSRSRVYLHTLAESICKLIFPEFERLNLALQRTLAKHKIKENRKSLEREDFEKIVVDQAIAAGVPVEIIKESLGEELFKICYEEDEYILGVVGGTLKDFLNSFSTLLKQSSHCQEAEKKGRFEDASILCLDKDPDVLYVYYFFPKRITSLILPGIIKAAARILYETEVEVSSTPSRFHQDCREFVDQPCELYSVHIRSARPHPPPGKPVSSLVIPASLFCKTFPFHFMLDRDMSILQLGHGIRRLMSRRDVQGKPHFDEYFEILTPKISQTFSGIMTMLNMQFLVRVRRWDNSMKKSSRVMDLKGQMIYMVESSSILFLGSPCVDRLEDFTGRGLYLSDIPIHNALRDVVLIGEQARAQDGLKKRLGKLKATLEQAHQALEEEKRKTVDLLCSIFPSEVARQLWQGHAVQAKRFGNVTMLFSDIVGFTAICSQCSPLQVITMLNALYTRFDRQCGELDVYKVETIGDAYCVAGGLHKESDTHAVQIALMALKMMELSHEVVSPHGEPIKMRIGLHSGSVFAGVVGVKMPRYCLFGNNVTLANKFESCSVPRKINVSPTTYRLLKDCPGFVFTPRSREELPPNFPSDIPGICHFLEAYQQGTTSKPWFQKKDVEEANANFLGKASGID
Sequence (P16068 whole entry): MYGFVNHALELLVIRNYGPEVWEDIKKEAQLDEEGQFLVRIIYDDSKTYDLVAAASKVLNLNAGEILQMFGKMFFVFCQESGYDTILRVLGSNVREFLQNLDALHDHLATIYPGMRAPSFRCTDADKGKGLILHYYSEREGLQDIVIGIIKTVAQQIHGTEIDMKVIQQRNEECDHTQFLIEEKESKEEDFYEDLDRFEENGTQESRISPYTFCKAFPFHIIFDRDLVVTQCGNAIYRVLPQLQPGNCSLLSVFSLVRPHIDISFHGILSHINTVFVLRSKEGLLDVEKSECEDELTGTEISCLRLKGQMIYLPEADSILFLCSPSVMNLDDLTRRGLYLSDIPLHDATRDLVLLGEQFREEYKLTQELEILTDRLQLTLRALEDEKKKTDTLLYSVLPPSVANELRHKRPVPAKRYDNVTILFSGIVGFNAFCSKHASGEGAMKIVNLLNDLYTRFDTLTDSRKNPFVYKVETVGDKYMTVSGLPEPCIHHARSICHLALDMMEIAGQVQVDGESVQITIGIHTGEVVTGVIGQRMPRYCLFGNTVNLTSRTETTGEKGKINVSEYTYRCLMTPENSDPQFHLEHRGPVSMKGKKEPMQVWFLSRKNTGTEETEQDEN
PROCEDURE_DETAILS: Activity of purified sGC stimulated with DEA/NO
Assay type: biochemical, bovine
MEASUREMENT_PARAMETERS: DEA/NO 0.05 μM; 95% CI
Give measured IC50 for each item. Keep answers brief.
Number first, unit second.

Each of the following entries comes with a recorded value; kindly state IC50 for each.
1. O=C/C=C/c1ccccc1
2. CC(=O)C(C)=O

560 µM
290 µM

---

SYSTEM_TESTED: soluble guanylate cyclase (sGC) (Bos taurus, UniProt P16068+P19687)
Construct: The activity of sGC purified from bovine lung; from tissue; host or cells: bovine lung
PROCEDURE_DETAILS: Activity of purified sGC stimulated with DEA/NO
Format: biochemical, bovine
MEASUREMENT_PARAMETERS: control, no flavoring (0.1% DMSO); 95% CI; read-out: EC50 of DEA/NO for sGC stimulation
MEASUREMENT_NAME: pEC50
One number for each entry, as −log10 of the molar value.

Note pEC50 for the compound shown: CCN(CC)[N+]([O-])=NO [DEA/NO, 2,2-Diethyl-1-nitroso-oxyhydrazine, reference compound]
7.43

---

Give measured Emax of DEA/NO-stimulated sGC activity in presence of flavoring for each item. Keep answers brief.
SYSTEM_TESTED: soluble guanylate cyclase (sGC) (Bos taurus, UniProt P16068+P19687)
Construct: The activity of sGC purified from bovine lung; from tissue; host or cells: bovine lung
PROCEDURE_DETAILS: Activity of purified sGC stimulated with DEA/NO
Assay type: biochemical, bovine
MEASUREMENT_PARAMETERS: flavoring 1 mM, DEA/NO 0.01–10 μM
Answers are plain numbers, in µmol cGMP x min-1 x mg-1.

Known results for molecules:
CC(=O)c1ccccn1 [Acetylpyridine, 1-(Pyridin-2-yl)ethan-1-one] = 28
C=CCc1ccc(O)c(OC)c1 [Eugenol, 2-Methoxy-4-(prop-2-en-1-yl)phenol] = 28
O=C/C=C/c1ccccc1 [Cinnamaldehyde, (2E)-3-Phenylprop-2-enal] = 24
CC(=O)OCCC(C)C [Isoamylacetate, 3-Methylbutyl acetate] = 28
CC1CCC(C(C)C)C(O)C1 (stereo not shown) [Menthol, 5-Methyl-2-(propan-2-yl)cyclohexan-1-ol] = 28
COc1cc(C=O)ccc1O [Vanillin, 4-Hydroxy-3-methoxybenzaldehyde] = 25

# input for lookup
Note Emax of DEA/NO-stimulated sGC activity in presence of flavoring for the molecule shown: Cc1cnc(C)cn1 [Dimethylpyrazine, 2,5-Dimethylpyrazine]
27

---

Give measured Formazan formation (% of control) for each item. Keep answers brief.
Test system: endothelial cells
PROCEDURE_DETAILS: MTT to formazan conversion (viability)
Type: cell-based, porcine
MEASUREMENT_PARAMETERS: 1 mM, 60 minutes

Each of the following entries comes with a recorded value; kindly state Formazan formation (% of control) for each.
1. O=C/C=C/c1ccccc1
2. Cc1cnc(C)cn1
3. COc1cc(C=O)ccc1O [Vanillin, 4-Hydroxy-3-methoxybenzaldehyde]
4. C=CCc1ccc(O)c(OC)c1
5. CC(=O)c1ccccn1
6. CC(=O)OCCC(C)C [Isoamylacetate, 3-Methylbutyl acetate]
7. CC(=O)C(C)=O
8. CC1CCC(C(C)C)C(O)C1 (stereo not drawn)

91±2.6 % of control
103±3.7 % of control
109±6.7 % of control
107±4.6 % of control
102±4.4 % of control
103±3.8 % of control
95±4.6 % of control
100±2.9 % of control

Note Formazan formation (% of control) for the compound shown: CC12CCC(CC1)C(C)(C)O2
99±2.0 % of control

---

Tested on: rat aortic rings
PROCEDURE_DETAILS: Effect of flavorings on vascular tone of U-46619 precontracted aortic rings
MEASUREMENT_PARAMETERS: Rattus norvegicus, presence of L-NAME 0.2 mM; 95% CI; read-out: EC50 of relaxation of pre-contracted vessels (L-NAME)
Experimental: Unsexed Sprague-Dawley rats (obtained from Charles River, Sulzfeld, Germany) were housed at the local animal facility in approved cages. […] After equilibration for 60 min at the optimal resting tension of 20 mN, maximal contractile activity was determined with a depolarizing solution containing 60 mM K^+. […] Concentration-response curves of different ring segments from a single animal were averaged and counted as an individual experiment.
Kindly apply the following: Satisfied if EC50 is less than 1000 µM, Not satisfied in every other case.

Examples from the recorded data:
COc1cc(C=O)ccc1O [Vanillin, 4-Hydroxy-3-methoxybenzaldehyde] = Not satisfied
C=CCc1ccc(O)c(OC)c1 [Eugenol, 2-Methoxy-4-(prop-2-en-1-yl)phenol] = Satisfied
CC1CCC(C(C)C)C(O)C1 (stereo not shown) [Menthol, 5-Methyl-2-(propan-2-yl)cyclohexan-1-ol] = Not satisfied

Quick check: does O=C/C=C/c1ccccc1 [Cinnamaldehyde, (2E)-3-Phenylprop-2-enal] have EC50 under 1000 µM?
Satisfied

Quick check: does Cc1cnc(C)cn1 [Dimethylpyrazine, 2,5-Dimethylpyrazine] have EC50 under 1000 µM?
Not satisfied

Quick check: does O=Cc1ccccc1 [Benzaldehyde, benzaldehyde] have EC50 under 1000 µM?
Not satisfied

Quick check: does CC(=O)c1ccccn1 [Acetylpyridine, 1-(Pyridin-2-yl)ethan-1-one] have EC50 under 1000 µM?
Not satisfied

---

System: rat aortic rings
PROCEDURE_DETAILS: Relaxation of U-46619 precontracted aortic rings to DEA/NO
MEASUREMENT_PARAMETERS: read-out: EC50 of vascular relaxation to DEA/NO
MEASUREMENT_NAME: pEC50
One number for each entry, as −log10 of the molar value.

Note pEC50 for the compound shown: CCN(CC)[N+]([O-])=NO [DEA/NO, 2,2-Diethyl-1-nitroso-oxyhydrazine, reference compound]
7.37

---

Test system: endothelial cells
PROCEDURE_DETAILS: LDH release (membrane integrity)
MEASUREMENT_PARAMETERS: 1 mM, 60 minutes; maximum = 1% Triton
MEASUREMENT_NAME: LDH release (% of maximum)

Known results for compounds:
CC(=O)OCCC(C)C [Isoamylacetate, 3-Methylbutyl acetate] = 0.7±0.28 % of maximum
CC(=O)C(C)=O = 0.6±0.03 % of maximum

Note LDH release (% of maximum) for the compound shown: COc1cc(C=O)ccc1O [Vanillin, 4-Hydroxy-3-methoxybenzaldehyde]
1.4±0.72 % of maximum
